biological target: 5-hydroxymethyl-dUMP N-hydrolase (Homo sapiens, UniProt O43598); test: Inhibition of wild-type truncated human DNPH1 extracted from Escherichia coli BL21DE3 assessed as decrease in hmdUMP hydrolysis preincubated for 30 mins followed by hmdUMP addition measured after 30 mins in presence of NADH
Sequence (O43598 whole entry, the tested form may be a part): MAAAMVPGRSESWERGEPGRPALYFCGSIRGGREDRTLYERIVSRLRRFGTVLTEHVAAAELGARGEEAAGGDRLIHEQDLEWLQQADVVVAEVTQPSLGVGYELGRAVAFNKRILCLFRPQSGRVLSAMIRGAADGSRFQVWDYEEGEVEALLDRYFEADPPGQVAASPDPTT
measure: IC50 (nM)

smilesData: O=c1[nH]c(=O)n([C@@H]2O[C@H](COP(=O)(O)O)[C@@H](O)[C@H]2O)cc1CO
testedSystem: 5-hydroxymethyl-dUMP N-hydrolase (Homo sapiens, UniProt O43598)
IC50 / nM: 1300
//
smilesData: O=c1[nH]c(=O)n([C@@H]2O[C@H](COP(=O)(O)O)[C@@H](O)[C@@H]2F)cc1CO
testedSystem: 5-hydroxymethyl-dUMP N-hydrolase (Homo sapiens, UniProt O43598)
IC50 / nM: 1500

====

target: 5-hydroxymethyl-dUMP N-hydrolase (Homo sapiens); assay: Competitive inhibition of wild-type truncated human DNPH1 extracted from Escherichia coli BL21DE3 using hmdUMP as substrate preincubated for 30 mins followed by substrate addition measured after 60 mins in presence of NADH
pKd: −log10 of the molar value.
measure: pKd

smilesData: O=c1[nH]c(=O)n([C@@H]2O[C@H](COP(=O)(O)O)[C@@H](O)[C@@H]2F)cc1CO
measure: pKd
quantitativeReadout: 6.24
--
smilesData: O=c1[nH]c(=O)n([C@@H]2O[C@H](COP(=O)(O)O)[C@@H](O)[C@H]2O)cc1CO
measure: pKd
quantitativeReadout: 6.22

====

molecular target: 5-hydroxymethyl-dUMP N-hydrolase (Homo sapiens, UniProt O43598); assay: Competitive inhibition of wild-type truncated human DNPH1 extracted from Escherichia coli BL21DE3 using hmdUMP as substrate preincubated for 30 mins followed by substrate addition measured after 60 mins in presence of NADH
pKi: −log10 of the molar value.
measure: pKi

Past entries and their recorded results:
smilesData: O=P(O)(O)OC[C@H]1CN(Cc2cncc(CO)c2)C[C@@H]1O
quantitativeReadout: 5.44
--
smilesData: O=c1[nH]cc(CN2C[C@H](COP(=O)(O)O)[C@@H](O)C2)cc1CO
quantitativeReadout: 6.21
--
smilesData: Nc1nc2c(CN3C[C@H](COP(=O)(O)O)[C@@H](O)C3)c[nH]c2c(=O)[nH]1
quantitativeReadout: 5.19
--
smilesData: O=c1[nH]cccc1CN1C[C@H](COP(=O)(O)O)[C@@H](O)C1
quantitativeReadout: 4.43
--
smilesData: COc1nc(OC)c(CN2C[C@H](COP(=O)(O)O)[C@@H](O)C2)cc1F
quantitativeReadout: 4.91

[P] Nc1ncnc2c(CN3C[C@H](COP(=O)(O)O)[C@@H](O)C3)c[nH]c12
[Q] O=P(O)(O)OC[C@H]1CN(Cc2cc(CO)c(F)nc2F)C[C@@H]1O
stdin: // pick larger pKi from pair: P vs Q Label of pick, please.
stdout: P
(P: 5.55, Q: 5.29)

====

target: 5-hydroxymethyl-dUMP N-hydrolase (Homo sapiens); assay: Competitive inhibition of wild-type truncated human DNPH1 extracted from Escherichia coli BL21DE3 using hmdUMP as substrate preincubated for 30 mins followed by substrate addition measured after 60 mins in presence of NADH
measure: Ki

smilesData: O=P(O)(O)OC[C@H]1NCC[C@@H]1O
result: > 50 µM
//
smilesData: O=c1[nH]c(CN2C[C@H](COP(=O)(O)O)[C@@H](O)C2)c(CO)c(=O)[nH]1
result: > 50 µM

Proceeding to the next molecule to report its Ki.
stdin: // Ki lookup, key: "O=P(O)(O)OC[C@H]1NC[C@H](O)[C@@H]1O"
stdout: > 50 µM

The measured values listed here are drawn from ChEMBL document CHEMBL6153067.
